# System: HT29
# Method Description: Reverse Phase Protein Analysis (RPPA)
# Type: cell-based
# Setup Conditions: % change from DMSO (matched cell line)
Recorded Avg (Bad S136) values for a group of molecules are listed next.
Your answer should be a plain number; it is taken to be in %.

Solved cases below.
>  <Molecule>
Cc1cnc(Nc2ccc(F)cc2Cl)nc1-c1c[nH]c(C(=O)N[C@H](CO)c2cccc(Cl)c2)c1 [Vx-11e]

>  <Avg (Bad S136) / %>
5.53

$$$$
>  <Molecule>
O=C(Nc1ccc2[nH]nc(-c3ccncc3)c2c1)[C@@H]1CCN(CC(=O)N2CCN(c3ccc(-c4ncccn4)cc3)CC2)C1

>  <Avg (Bad S136) / %>
9.67

$$$$
>  <Molecule>
CC(C)Nc1cc(-c2c[nH]c(C(=O)N[C@H](CO)c3cccc(Cl)c3)c2)c(Cl)cn1

>  <Avg (Bad S136) / %>
10.73

$$$$

Turning now to a further record.
// returns reported Avg (Bad S136) for input Cn1nccc1Nc1nccc(-c2ccn([C@H](CO)c3ccc(Cl)c(F)c3)c(=O)c2)n1
2

* * *

The following compounds are listed with their measured Avg (Caspase 3 CL D175) values.
# System: HCT116
# Method Description: Reverse Phase Protein Analysis (RPPA)
# Format: cell-based, human
# Setup Conditions: % change from DMSO (matched cell line)
Entry rule: numbers only, all in %.

What Avg (Caspase 3 CL D175) appears in the records for this compound with HCT116? Cn1nccc1Nc1nccc(-c2ccn([C@H](CO)c3ccc(Cl)c(F)c3)c(=O)c2)n1
−8.36

Could you do the same for O=C(Nc1ccc2[nH]nc(-c3ccncc3)c2c1)[C@@H]1CCN(CC(=O)N2CCN(c3ccc(-c4ncccn4)cc3)CC2)C1 , please?
−4.63

// same read-out, input: CC(C)Nc1cc(-c2c[nH]c(C(=O)N[C@H](CO)c3cccc(Cl)c3)c2)c(Cl)cn1
−10.11

And what about the compound Cc1cnc(Nc2ccc(F)cc2Cl)nc1-c1c[nH]c(C(=O)N[C@H](CO)c2cccc(Cl)c2)c1 [Vx-11e] ?
−5.19

* * *

# Tested on: A375
# Method Description: Reverse Phase Protein Analysis (RPPA)
# Assay type: cell-based, human
# Setup Conditions: % change from DMSO (matched cell line)
# Experimental: Control wells were treated with DMSO at 0.1% (v/v) for 6 hours prior to cell lysate generation. Samples were then analyzed using reverse-phase protein microarray technology (Theranostics Health). Cell lines with common alterations in BRAF and RAS were assayed: BRAF^V600E mutant lines A375, Colo205, and HT29; KRAS^G12C-mutant cell line MIAPACa-2; KRAS^G13D-mutant cell line HCT116; and AN3Ca with atypical HRAS^F82L mutation. […]
Quantity Name: Avg (Cyclin D1) (%)
The figure you give is taken to be in %; do not add the unit.

Quick one: Avg (Cyclin D1) of Cc1cnc(Nc2ccc(F)cc2Cl)nc1-c1c[nH]c(C(=O)N[C@H](CO)c2cccc(Cl)c2)c1 [Vx-11e] ?
−85.46

Check O=C(Nc1ccc2[nH]nc(-c3ccncc3)c2c1)[C@@H]1CCN(CC(=O)N2CCN(c3ccc(-c4ncccn4)cc3)CC2)C1 [SCH772984] too.
−84.05

// same read-out, input: Cn1nccc1Nc1nccc(-c2ccn([C@H](CO)c3ccc(Cl)c(F)c3)c(=O)c2)n1 [GDC-0994]
−81.65

Next up: CC(C)Nc1cc(-c2c[nH]c(C(=O)N[C@H](CO)c3cccc(Cl)c3)c2)c(Cl)cn1 [BVD-523]
−81.45
